- System: Human immunodeficiency virus 1
- method: Anti retroviral activity against HIV-1 NL4-3 harboring at NA polymorph infected in human MT4 cells by CellTitre-Glo luminescent reagent based assay
- Type: functional, organism-based
- experimental.parameters: Human immunodeficiency virus 1, NL4-3, MT4
measure.name: pEC50
Friendly reminder that pEC50 comes from taking -log10 of the concentration in mol/L.

Return pEC50 (reported value) for this compound: Cc1nc2ccccc2c(-c2ccc3c4c(ccnc24)CCO3)c1[C@H](OC(C)(C)C)C(=O)O [BI-224436]
7.49

====

- method: Toxicity in rat assessed as maximum tolerated dose
- experimental.parameters: in vivo
measure.name: MTD
Express your answer as a number followed by its unit.

Return MTD (reported value) for this compound: Cc1nc(C)c([C@H](OC(C)(C)C)C(=O)O)c(N2CCC(C)(C)CC2)c1-c1ccc(OCCc2ccc(F)cc2)cc1
50 mg/kg/day

====

- method: Clearance in Sprague-Dawley rat at 1 mg/kg, iv by LC-MS/MS analysis
- Type: ADME, organism-based
- experimental.parameters: in vivo
As shown below, each of these compounds has a reported clearance value.
Your answer is read as mL/min/kg, so omit the unit and give the number.

Example cases with answers are listed next.
Cc1nc(C)c([C@H](OC(C)(C)C)C(=O)O)c(N2CCC(C)(C)CC2)c1-c1ccc(OCCc2cc(F)ccc2F)cc1; 18.7
Cc1nc(C)c([C@H](OC(C)(C)C)C(=O)O)c(N2CCC(C)(C)CC2)c1-c1ccc(OCCc2cc(F)c(F)cc2F)cc1; 8.1
Cc1nc(C)c([C@H](OC(C)(C)C)C(=O)O)c(N2CCC(C)(C)CC2)c1-c1ccc(OCCc2ccc(F)cc2)cc1; 5.5

Attention now shifts to the item below.
Return clearance (reported value) for this compound: COc1ccc(CCOc2ccc(-c3c(C)nc(C)c([C@H](OC(C)(C)C)C(=O)O)c3N3CCC(C)(C)CC3)cc2)cc1
13.4

====

- target.desc: UGT (Homo sapiens, UniProt O60656+O75310+O75795+P06133+P0DTE4+P0DTE5+P16662+P19224+P22309+P22310+P35503+P35504+P36537+P54855+Q6UWM9+Q9BY64+Q9HAW7+Q9HAW8+Q9HAW9)
- method: Metabolic stability assessed as human UGT-mediated metabolism by measuring half life by phase II UGT conjugation assay
- Assay type: ADME, protein assay
measure.name: half-life

Return half-life (reported value) for this compound: Cc1nc(C)c([C@H](OC(C)(C)C)C(=O)O)c(N2CCC(C)(C)CC2)c1-c1ccc(OCCc2ccc(F)cc2)cc1
≥ 2 h

====

- method: Clearance in Beagle dog at 1 mg/kg, iv by LC-MS/MS analysis
- Format: ADME, organism-based, Canis lupus familiaris
- experimental.parameters: in vivo
measure.name: clearance (mL/min/kg)
Your answer is read as mL/min/kg, so omit the unit and give the number.

Return clearance (reported value) for this compound: Cc1nc(C)c([C@H](OC(C)(C)C)C(=O)O)c(N2CCC(C)(C)CC2)c1-c1ccc(OCCc2ccc(F)cc2)cc1
2.9

====

- method: Elimination half life in CD-1 mouse at 1 mg/kg, iv by LC-MS/MS analysis
- Assay type: ADME, organism-based
- experimental.parameters: in vivo, read-out: beta t1/2 (converted)
measure.name: half-life (h)
Your answer is read as h, so omit the unit and give the number.

Return half-life (reported value) for this molecule: Cc1nc(C)c([C@H](OC(C)(C)C)C(=O)O)c(N2CCC(C)(C)CC2)c1-c1ccc(OCCc2ccc(F)cc2)cc1
6.3

====

- method: Displacement of [3H](S)-2-(tert-butoxy)-2-(2-methyl-4-(p-tolyl)quinolin-3-yl)acetic acid from LEDGF-binding site of recombinant T124/T125 polymorphic HIV1 integrase by LIDIA assay
- Set-up: species or system Human immunodeficiency virus 1
Output satisfied for records whose IC50 is lower than 30 nM, not satisfied for records at or above 30 nM.

Cc1nc(C)c([C@H](OC(C)(C)C)C(=O)O)c(N2CCC(C)(C)CC2)c1-c1ccc(OC2COCC2c2ccc(F)cc2)cc1 (stereo in doubt; 40b); satisfied
Cc1noc(C)c1CCOc1ccc(-c2c(C)nc(C)c([C@H](OC(C)(C)C)C(=O)O)c2N2CCC(C)(C)CC2)cc1; satisfied
Cc1nc(C)c([C@H](OC(C)(C)C)C(=O)O)c(N2CCC(C)(C)CC2)c1-c1ccc(Cc2ccccc2)cc1; satisfied

Determine whether this compound shows IC50 lower than 30 nM (ties excluded): Cc1nc(C)c([C@H](OC(C)(C)C)C(=O)O)c(N2CCC(C)(C)CC2)c1-c1ccccc1
not satisfied

Determine whether this compound shows IC50 lower than 30 nM (ties excluded): Cc1ccc(CCOc2ccc(-c3c(C)nc(C)c([C@H](OC(C)(C)C)C(=O)O)c3N3CCC(C)(C)CC3)cc2)s1
not satisfied

Determine whether this compound shows IC50 lower than 30 nM (ties excluded): Cc1nc(C)c([C@H](OC(C)(C)C)C(=O)O)c(N2CCC(C)(C)CC2)c1-c1ccc(OCCc2ccc(F)cc2F)cc1
satisfied

====

As shown below, each of these molecules has a reported half-life at 0.5 µM value.
- method: Metabolic stability in human liver microsome assessed half life at 0.5 uM by LC-MS/MS analysis
- Assay type: ADME
- experimental.parameters: liver microsomes

Example cases with answers are listed next.
Cc1cc(CCOc2ccc(-c3c(C)nc(C)c([C@H](OC(C)(C)C)C(=O)O)c3N3CCC(C)(C)CC3)cc2)ccc1F; > 2 h
Cc1nc(C)c([C@H](OC(C)(C)C)C(=O)O)c(N2CCC(C)(C)CC2)c1-c1ccc(SCCc2ccc(F)cc2)cc1; > 2 h

Attention now shifts to the item below.
Return half-life at 0.5 µM (reported value) for this molecule: Cc1nc(C)c([C@H](OC(C)(C)C)C(=O)O)c(N2CCC(C)(C)CC2)c1-c1ccc(OCCc2cc(F)c(F)cc2F)cc1
> 2 h

====

As shown below, each of these compounds has a reported half-life at 0.5 µM value.
- method: Metabolic stability in human liver microsome assessed half life at 0.5 uM by LC-MS/MS analysis
- Format: ADME
- experimental.parameters: liver microsomes

Example cases with answers are listed next.
Cc1nc(C)c([C@H](OC(C)(C)C)C(=O)O)c(N2CCC(C)(C)CC2)c1-c1ccc(OCCc2ccccc2)cc1; > 2 h
COc1cccc(CCOc2ccc(-c3c(C)nc(C)c([C@H](OC(C)(C)C)C(=O)O)c3N3CCC(C)(C)CC3)cc2)c1; > 2 h

Attention now shifts to the item below.
Return half-life at 0.5 µM (reported value) for this compound: Cc1nc(C)c([C@H](OC(C)(C)C)C(=O)O)c(N2CCC(C)(C)CC2)c1-c1ccc(OCCCc2ccc(F)cc2)cc1
> 2 h
